test system: SNB-75 CNS; test: NCI tumour cell line growth inhibition, 48 h
Below: a set of entries, each annotated with reported TGI.

For orientation, consider the following solved cases.
{"molecule": "COc1ccc(C2C(Cl)C(=O)N2NC(=O)Cc2ccccc2)cc1 (stereo not given)", "measured target": "SNB-75 CNS", "TGI": "> 100 µM"}
{"molecule": "O=C1CCCC2=C1CC1=C(CCCC1=O)N2c1cccc2ccccc12", "measured target": "SNB-75 CNS", "TGI": "> 100 µM"}
{"molecule": "COC(=O)c1c(CC#N)cccc1CC#N", "measured target": "SNB-75 CNS", "TGI": "> 100 µM"}
{"molecule": "CC(NNC(=S)N1CCCCCC1)c1ccc2ccccc2n1 (stereo not given)", "measured target": "SNB-75 CNS", "TGI": "27.5 µM"}
{"molecule": "O=C1/C(=C\\c2ccc(-c3ccc(Cl)cc3Cl)o2)SC2N=C(COc3ccc(Cl)cc3)NN12 (stereo not given)", "measured target": "SNB-75 CNS", "TGI": "> 100 µM"}
{"molecule": "CCN(CC)CCCCCCCNc1c2ccc(Cl)cc2nc2ccc(OC)cc12", "measured target": "SNB-75 CNS", "TGI": "2.62 µM"}

Fill in the blank: the reported TGI of CC(=O)/C=C/c1ccc(C2CC(C)=Nc3c(ccc4c3C(=O)c3ccccc3C4=O)N2)cc1 (stereo not given) is ____.
> 100 µM

Fill in the blank: the reported TGI of "O=C(c1ccccc1)c1c(C(=O)c2ccccc2)c(-c2ccccc2)c2c(-c3ccccc3)sc(-c3ccccc3)c2c1-c1ccccc1" is ____.
> 100 µM

Fill in the blank: the reported TGI of COc1cc(-c2coc3c(OC)c(OC4OC(CO)C(O)C(O)C4O)c(OC)cc3c2=O)cc(OC)c1C (stereo not given) is ____.
21.6 µM

Fill in the blank: the reported TGI of COC(=O)C1=CC[C@@H]2C(C(=O)O)=CO[C@@H](OC3OC(CO)C(O)C(O)C3O)[C@H]12 (stereo not given in full) is ____.
> 300 µM
